System: galium (catchweed bedstraw, Galium aparine)
Assay: Test C postemergence, visual plant response rating
Assay type: in vivo
Details: Test C, postemergence, 125 g ai/ha
Reported Galium plant response rating (0 to 100 scale) is given for each of the following compounds.
I only need the number, thanks.

# count of solved cases: 2
{"compound": "C#CCO/N=C(\\c1c(O)c(Cl)nn(C)c1=O)c1ccc(F)c2ccccc12 [Compound 220]", "measurement": 100}
{"compound": "C#CCON=C(c1ccc(Cl)c(Cl)c1)c1c(O)c(C)nn(C)c1=O [Compound 178]", "measurement": 80}

For the record CCO/N=C(\c1c(O)c(Cl)nn(C)c1=O)c1ccc(F)c2ccccc12 [Compound 212] , what value of Galium plant response rating (0 to 100 scale) is listed for galium (catchweed bedstraw, Galium aparine)?
100
